Data provenance is the supplement of paper PMC10567573.

Field: protein stability index. Provide a value for each of the sequences that follow.
# PROTOCOL DESCRIPTION: protein stability index of a GFP-peptide fusion (GPS, HEK-293T) (PSI 1-6); higher = more stable;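 further: 24-mer peptide tiles fused after GFP, lentivirally expressed, FACS-sorted into six equal bins by GFP/DsRed ratio, decoded by Illumina sequencing, PSI is the read-weighted mean bin number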
# CONDITIONS: treatment: MLN4924 1 uM, 8 h; c terminus: a fixed tail appended
Give bare numbers.

| ENTRY SEQUENCE | protein stability index |
| --- | --- |
| QCNICGKCFSCNSNLHRHQRTHTG [ZNF263] | 4.63 |
| FYFKLTDLYKKVKKNSSPPLSLYG [CRY1] | 2.69 |
| TLPPASRFIIIFEQIRFVMKAHSF [SOAT1] | 2.57 |
| FFGVFQSFVVLLYILDNETNFVVQ [CLPTM1] | 2.86 |
| KYELMRPSNKAPLLVLCEDHRGRM [EHMT1] | 2.78 |

Items follow; give protein stability index for each.
1. MEAAREGHEEMVALLLGQGANINA [ANKRD17]
2. GFVFGTTLIMLLSLAAFSVISVVS [RTN3]
3. AGSSLPTSSKVNATVPSNMMSVNG [ACBD3]

4.15
2.61
4.16
